- target or test system: 14-3-3ζ:BAD-112-136F interactions (Homo sapiens)
- Construct: expressed in transfected cells; host or cells: NIH-3T3 fibroblasts, bi-directional pBI-CMV1 plasmid
- Sequence (P63104 whole entry): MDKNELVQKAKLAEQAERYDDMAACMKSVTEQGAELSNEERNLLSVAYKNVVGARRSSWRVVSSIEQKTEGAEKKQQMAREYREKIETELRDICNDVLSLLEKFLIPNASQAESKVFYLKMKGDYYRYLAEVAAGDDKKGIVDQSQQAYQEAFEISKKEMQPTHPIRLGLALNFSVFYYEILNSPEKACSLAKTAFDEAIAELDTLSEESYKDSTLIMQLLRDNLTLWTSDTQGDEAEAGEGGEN
- experiment: BRET sensor screen for disruption of 14-3-3ζ-Rluc8:BAD-112-136F-mCitrine in living NIH-3T3 cells
- Type: cell-based, murine
- Design: unit not given here
- applied conditions: NIH-3T3 cells; hits from the primary screen
measure: BRET reduction on NIH-3T3
Please give only the number in your answer, with no unit.

Record summary for Cl.Cl.Fc1ccc(C(c2ccc(F)cc2)N2CCN(C/C=C/c3ccccc3)CC2)cc1 [Flunarizine 2HCl] : reported BRET reduction on NIH-3T3 = 36.4286

src = paper PMC12603070
